Where these numbers come from: patent US20210214435A1

target: T1, mouse GPVI extracellular domain fused at its C-terminus to human IgG1 Fc (GPVI-Fc) (mouse; human); experiment: Solution equilibrium titration (SET), Fab with GPVI-Fc
T1 construct: also called mGPVI; mouse GPVI-Fc
T1 sequence (chain, as listed by the source limits assumed): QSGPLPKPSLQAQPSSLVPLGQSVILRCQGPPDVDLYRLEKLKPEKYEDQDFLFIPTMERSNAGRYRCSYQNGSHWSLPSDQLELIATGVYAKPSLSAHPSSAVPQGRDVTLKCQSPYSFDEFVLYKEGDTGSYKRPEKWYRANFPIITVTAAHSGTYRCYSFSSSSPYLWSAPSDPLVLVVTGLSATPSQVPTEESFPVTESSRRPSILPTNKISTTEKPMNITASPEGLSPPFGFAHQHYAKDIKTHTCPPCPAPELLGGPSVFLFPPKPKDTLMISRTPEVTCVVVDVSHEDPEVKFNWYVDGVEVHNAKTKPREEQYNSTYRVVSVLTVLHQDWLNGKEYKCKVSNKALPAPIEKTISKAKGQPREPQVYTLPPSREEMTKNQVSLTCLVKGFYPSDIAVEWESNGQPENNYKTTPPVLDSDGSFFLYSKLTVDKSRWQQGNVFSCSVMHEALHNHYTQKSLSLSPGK
assay_endpoint: Kd (nM)
Expressed in nM, but write only the number.

Answered examples (2):
| binder | Kd, nM |
| --- | --- |
| Fab #3 comprising a modified heavy chain constant region (Fab, V domains shown, Human Fab from the Ylanthia library; produced in HKB11 cells; also called Fab #3 mod; HC) VH: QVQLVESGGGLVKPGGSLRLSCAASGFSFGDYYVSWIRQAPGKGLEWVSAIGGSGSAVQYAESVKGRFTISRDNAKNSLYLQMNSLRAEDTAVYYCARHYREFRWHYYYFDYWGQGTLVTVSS VL: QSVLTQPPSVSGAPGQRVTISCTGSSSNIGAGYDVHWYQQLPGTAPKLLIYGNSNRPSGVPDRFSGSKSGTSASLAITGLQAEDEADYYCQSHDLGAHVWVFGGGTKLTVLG | 0.6 |
| Fab #4 comprising a modified heavy chain constant region (Fab, V domains shown, Human Fab from the Ylanthia library; produced in HKB11 cells; also called Fab #4 mod; HC) VH: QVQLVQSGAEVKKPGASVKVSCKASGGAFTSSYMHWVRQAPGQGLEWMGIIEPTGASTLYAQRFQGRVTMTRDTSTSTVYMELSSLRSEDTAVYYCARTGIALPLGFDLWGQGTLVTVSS VL: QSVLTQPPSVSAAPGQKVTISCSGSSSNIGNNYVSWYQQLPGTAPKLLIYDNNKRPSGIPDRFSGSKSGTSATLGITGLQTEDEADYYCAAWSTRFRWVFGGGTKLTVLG | 0.29 |

Consider the binder shown here: Fab #1 comprising a modified heavy chain constant region (Fab, V domains shown, Human Fab from the Ylanthia library; produced in HKB11 cells; also called Fab #1 mod; HC) VH: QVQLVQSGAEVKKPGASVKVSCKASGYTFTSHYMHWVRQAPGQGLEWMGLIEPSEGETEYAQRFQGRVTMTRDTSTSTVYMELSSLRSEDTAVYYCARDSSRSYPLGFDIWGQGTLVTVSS VL: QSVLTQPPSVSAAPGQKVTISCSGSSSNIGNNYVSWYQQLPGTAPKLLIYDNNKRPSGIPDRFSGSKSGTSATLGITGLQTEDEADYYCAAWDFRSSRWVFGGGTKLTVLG What is its recorded Kd?
28
